- Tested on: CAKI-1 renal
- Test summary: NCI tumour cell line growth inhibition, 48 h
Outcome measure: TGI

>>> val("CC1C[C@]2(C)C(=O)N(c3ccccc3)C(=N)[C@@H]2N(C)c2ccccc21 (stereo not given in full)")
"> 100 µM"
>>> val("CC(=O)OCC1=C(C)C(OC(=O)C(OC(C)=O)[C@@H](NC(=O)c2ccccc2)c2ccccc2)CCC1(C)C (stereo not given in full)")
"> 100 µM"
>>> val("O=[N+]([O-])c1ccc2nc(/C=C(\\O)c3ccc(F)cc3)c(/C=C(\\O)c3ccc(F)cc3)nc2c1")
"> 100 µM"
>>> val("CN(C)c1ccc(N=Nc2ccccn2)cc1")
"> 100 µM"
>>> val("Cn1c(-c2ccc(/C=N\\N3CCN(/N=C/c4ccc(-c5c[n+]6ccccc6n5C)cc4)CC3)cc2)c[n+]2ccccc12")
"> 100 µM"
>>> val("CC[C@@H](/C=C\\CCC1(C[C@H](O)CCC=C(C)C)OCCO1)O[Si](C(C)C)(C(C)C)C(C)C")
"87.1 µM"
>>> val("CC12CCC(=O)C=C1CCC1C2C(O)CC2(C)C(c3csc(N)n3)CCC12 (stereo not given)")
"> 100 µM"
>>> val("N#Cc1c(NC(=S)NC(=O)c2ccccc2)nc2c(c1-c1ccccc1)CCCC2")
"> 100 µM"
>>> val("CCN(Cc1ccccc1OC)c1ccc(CO)c(Cl)c1")
"23.9 µM"
>>> val("CCOC(=O)/C=C(\\C)c1ccc(OC)cc1")
"> 100 µM"

* * *

- System: OVCAR-4 ovarian
- Test summary: NCI tumour cell line growth inhibition, 48 h
Outcome measure: TGI

>>> val("COc1ccc2c(c1)OC(N(C(C)=O)C(C)=O)=C(C#N)C2c1ccc(F)cc1 (stereo not given)")
"> 100 µM"
>>> val("CCC(CC)n1c(C)nc2c1C(=O)c1ccccc1C2=O")
"> 100 µM"
>>> val("Cn1c2ccccc2c(=NNc2ccc(C(=O)O)cc2)c2ccccc21")
"49 µM"
>>> val("CCOC(=O)NN1C(=O)C(=P(c2ccccc2)(c2ccccc2)c2ccccc2)C(C(=O)OCC)=C1C")
"> 100 µM"
>>> val("CC(=O)n1c2ccccc2c2nc3nc(Oc4ccc(C)cc4)c4ccccc4c3cc21")
"> 100 µM"

* * *

- Tested on: SK-OV-3 ovarian
- Test summary: NCI tumour cell line growth inhibition, 48 h
Recorded TGI values for a group of compounds are listed next.
Outcome measure: TGI

>>> val("Cc1cccc(NC(=S)Nc2ccccc2Cl)n1")
"51.8 µM"
>>> val("CCc1cc(O)c(Cl)c(C)c1Cl")
"34.5 µM"
>>> val("O=C1C(Cl)=C(Nc2cccc(O)c2)C(=O)N1c1cc(Cl)c(Cl)cc1Cl")
"65.3 µM"
>>> val("Cn1ccnc1C(=O)/C=C/c1ccc(CC(=O)Nc2ccccc2)cc1")
"> 25 µM"
>>> val("Cn1c(-c2ccc(/C=N\\N3CCN(/N=C/c4ccc(-c5c[n+]6ccccc6n5C)cc4)CC3)cc2)c[n+]2ccccc12")
"> 100 µM"
>>> val("O=C(CCl)N1c2ccccc2Sc2c1ccc1ccccc21")
"26.2 µM"
>>> val("CN(C)c1ccc(N=Nc2ccccn2)cc1")
"> 100 µM"
>>> val("CC1(C)N=C(N)N=C(N)N1c1cccc(OCCOc2ccc([N+](=O)[O-])cc2)c1")
"> 100 µM"
>>> val("O=C1CC[C@@H](S(=O)(=O)c2ccccc2)[C@@H](/C=C/c2ccccc2)O1")
"> 100 µM"
>>> val("S=c1[nH]c2ccc(Br)cc2c(=S)n1-c1ccccc1")
"85.6 µM"
